Data origin: ChEMBL document CHEMBL6087472

target.entity: Protein cereblon/Casein kinase I isoform delta (Homo sapiens, UniProt P48730+Q96SW2)
Sequence (P48730 whole entry, looked up, the tested form may be a part, canonical isoform): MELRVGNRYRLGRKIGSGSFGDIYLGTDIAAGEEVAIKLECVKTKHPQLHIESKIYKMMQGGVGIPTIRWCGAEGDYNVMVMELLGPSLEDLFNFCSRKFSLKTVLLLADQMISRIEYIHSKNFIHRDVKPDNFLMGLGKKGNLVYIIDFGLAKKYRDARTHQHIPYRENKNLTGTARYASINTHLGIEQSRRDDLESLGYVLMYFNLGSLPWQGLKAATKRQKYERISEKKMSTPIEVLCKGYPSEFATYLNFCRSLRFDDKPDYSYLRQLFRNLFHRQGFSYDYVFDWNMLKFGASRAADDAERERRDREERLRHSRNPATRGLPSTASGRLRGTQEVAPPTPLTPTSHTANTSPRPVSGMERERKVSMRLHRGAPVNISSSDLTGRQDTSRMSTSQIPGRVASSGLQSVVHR
Sequence (Q96SW2 whole entry, looked up, the tested form may be a part, canonical isoform): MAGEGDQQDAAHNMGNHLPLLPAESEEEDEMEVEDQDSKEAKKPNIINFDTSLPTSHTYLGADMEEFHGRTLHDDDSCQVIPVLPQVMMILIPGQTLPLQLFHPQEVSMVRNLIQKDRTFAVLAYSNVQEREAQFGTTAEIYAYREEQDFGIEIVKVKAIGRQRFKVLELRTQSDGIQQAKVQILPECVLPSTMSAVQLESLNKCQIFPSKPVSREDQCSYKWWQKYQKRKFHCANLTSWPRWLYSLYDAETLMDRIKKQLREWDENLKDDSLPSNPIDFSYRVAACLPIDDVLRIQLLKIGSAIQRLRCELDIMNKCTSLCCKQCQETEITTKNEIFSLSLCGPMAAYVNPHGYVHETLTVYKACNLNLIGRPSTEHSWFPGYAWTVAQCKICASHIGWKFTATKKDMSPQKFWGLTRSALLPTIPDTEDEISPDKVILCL
procedure.text: PROTAC activity at CRBN/Hibit-fused CK1 delta in human MV4-11 cells assessed as degradation of CK1-delta incubated for 6 hrs by Nano-Glo HiBiT assay relative to control
Assay type: cell-based
Kindly state Emax for each of the entries shown.
Answers are plain numbers, in %.

Consider the following illustrative entries.
molecule | Emax, %
O=C1CCC(N2C(=O)c3cccc(NCCCCCC(=O)N4CCC(F)(Cn5cnc(-c6ccc(F)cn6)c5-c5ccnc6[nH]ccc56)CC4)c3C2=O)C(=O)N1 (centres undefined) | 35
O=C(COc1cccc2c1C(=O)N(C1CCC(=O)NC1=O)C2=O)NCc1ccc(CC(=O)N2CCC(F)(Cn3cnc(-c4ccc(F)cn4)c3-c3ccnc4[nH]ccc34)CC2)cc1 (centres undefined) | 14.8

Give Emax for O=C(CCOCCOCCN1CCC(F)(Cn2cnc(-c3ccc(F)cn3)c2-c2ccnc3[nH]ccc23)CC1)NCCNc1cccc2c1C(=O)N(C1CCC(=O)NC1=O)C2=O (centres undefined) 36.4
